Target or system: NRAS Q61K (Homo sapiens, UniProt P01111+P62937, Q61K)
Sequence (P01111 whole entry Q61K): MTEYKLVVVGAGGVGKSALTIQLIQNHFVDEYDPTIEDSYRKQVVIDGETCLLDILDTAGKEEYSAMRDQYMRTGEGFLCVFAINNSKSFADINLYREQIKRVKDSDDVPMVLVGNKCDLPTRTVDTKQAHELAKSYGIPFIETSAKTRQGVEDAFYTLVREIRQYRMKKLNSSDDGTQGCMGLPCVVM
Sequence (P62937 whole entry): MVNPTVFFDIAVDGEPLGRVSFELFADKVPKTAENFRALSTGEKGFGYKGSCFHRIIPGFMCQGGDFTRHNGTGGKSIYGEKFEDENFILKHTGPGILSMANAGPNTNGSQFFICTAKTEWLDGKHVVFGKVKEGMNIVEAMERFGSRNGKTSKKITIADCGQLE
Method notes: Disruption of BRAF RBD interaction with Ras (FRET / MOA assay, with Cyclophilin A)
Format: biochemical
Assay conditions: NRAS Q61K; read-out: NRAS Q61K FRET data IC50
pIC50: −log10 of the molar value.
Catalogue of pIC50 readings, one per entry.

Below, 9 molecules whose answers are already recorded.
[[record]]
molecule = "CCn1c(-c2cccnc2[C@H](C)OC)c2c3cc(ccc31)-c1csc(n1)C[C@H](NC(=O)[C@H](C(C)C)N(C)C(=O)N1CC3(CCCO3)C1)C(=O)N1CCC[C@H](N1)C(=O)OCC(C)(C)C2 (atropisomer, axis not shown) [Example A522]"
measured = "7.00 to 8.00"

[[record]]
molecule = "C=CC(=O)N1CCOC2(CCN(C(=O)N(C)[C@H](C(=O)N[C@H]3CN4CCC=C(C4)c4ccc5c(c4)c(c(-c4cccnc4[C@H](C)OC)n5CC)CC(C)(C)COC(=O)[C@@H]4CCCN(N4)C3=O)C(C)C)CC2)C1 [Example A563]"
measured = "5.00 to 6.00"

[[record]]
molecule = "C=CC(=O)N1CCC[C@H]2CN(C(=O)N(C)[C@H](C(=O)N[C@H]3Cc4nc(cs4)-c4ccc5c(c4)c(c(-c4cccnc4[C@H](C)OC)n5CC)CC(C)(C)COC(=O)C4CCCN(N4)C3=O)C(C)C)C[C@H]21 (stereo partly shown) [Example A618]"
measured = "6.00 to 7.00"

[[record]]
molecule = "CCn1c(-c2cccnc2[C@H](C)OC)c2c3cc(ccc31)-c1csc(n1)C[C@H](NC(=O)[C@H](C(C)C)N(C)C(=O)N1CCC(C(=O)C(F)(F)F)CC1)C(=O)N1CCC[C@H](N1)C(=O)OCC(C)(C)C2 [Example A422]"
measured = "7.00 to 8.00"

[[record]]
molecule = "CCn1c(-c2cccnc2[C@H](C)OC)c2c3cc(ccc31)-c1csc(n1)C[C@H](NC(=O)[C@H](C(C)C)N(C)C(=O)N1CC3CCN(C)CC31)C(=O)N1CCC[C@H](N1)C(=O)OCC(C)(C)C2 (stereo partly shown) [Example A539]"
measured = "5.00 to 6.00"

[[record]]
molecule = "CCn1c(-c2cccnc2[C@H](C)OC)c2c3cc(ccc31)-c1csc(n1)C[C@H](NC(=O)[C@@H](OC(=O)N1CC(OC)C1)C(C)C)C(=O)N1CCC[C@H](N1)C(=O)OCC(C)(C)C2 [Example A354]"
measured = "6.00 to 7.00"

[[record]]
molecule = "C=CC(=O)N1CCOC2(CCN(C(=O)N(C)[C@H](C(=O)N[C@H]3Cc4nc(n(C)n4)-c4ccc5c(c4)c(c(-c4cccnc4[C@H](C)OC)n5CC(F)(F)F)CC(C)(C)COC(=O)C4CCCN(N4)C3=O)C(C)C)CC2)C1 (stereo partly shown) [Example A606]"
measured = "6.00 to 7.00"

[[record]]
molecule = "CCn1c(-c2cc(C3CCN(C)CC3)cnc2[C@H](C)OC)c2c3cc(ccc31)-c1cc(O)cc(c1)C[C@H](NC(=O)[C@H](C(C)C)N(C)C(=O)[C@@H]1OCC[C@@H]1c1ccccc1)C(=O)N1CCC[C@H](N1)C(=O)OCC(C)(C)C2 (atropisomer, axis not shown) [Example A577]"
measured = "7.00 to 8.00"

[[record]]
molecule = "CCn1c(-c2cccnc2[C@H](C)OC)c2c3cc(ccc31)-c1csc(n1)C[C@H](NC(=O)[C@H](C(C)C)N(C)C(=O)N1CC(N(C)C)C1)C(=O)N1CCC[C@H](N1)C(=O)OCC(C)(C)C2 (racemic) [Example A170]"
measured = "7.00 to 8.00"


Now turn to the next molecule.
Entry CCn1c(-c2cccnc2[C@H](C)OC)c2c3cc(ccc31)-c1csc(n1)C[C@H](NC(=O)[C@H](C(C)C)N(C)C(=O)N1CC3(CN(C)C3)C1)C(=O)N1CCC[C@H](N1)C(=O)OCC(C)(C)C2 (atropisomer, axis not shown) [Example A268] has what pIC50?
7.00 to 8.00
